test system: spring wheat (Triticum aestivum L; TRZAS); assay: Postemergence herbicidal safening in cereal crops, greenhouse, visual injury: spring wheat; type: in vivo; conditions: Triticum aestivum, post-emergence, 480 h; herbicide alone 140 g/ha; 20-22 d; read-out: TRZAS Ob (visual injury)
ENDPOINT: pest or weed control at 140 g/ha (%)

{"CPD_SMILES": "COc1c(Cl)ccc(-c2nc(N)c(Cl)c(C(=O)O)n2)c1F", "UNIT_OF_MEASURE": "%", "MEASURED_VALUE": 45}
{"CPD_SMILES": "C=Cc1c(N)nc(-c2ccc(Cl)c(OC)c2F)nc1C(=O)OC", "UNIT_OF_MEASURE": "%", "MEASURED_VALUE": 40}
{"CPD_SMILES": "COc1c(N)nc(-c2ccc(Cl)c(OC)c2F)nc1C(=O)O", "UNIT_OF_MEASURE": "%", "MEASURED_VALUE": 95}
{"CPD_SMILES": "C=Cc1c(N)nc(-c2ccc(Cl)c(N(C)C)c2F)nc1C(=O)O", "UNIT_OF_MEASURE": "%", "MEASURED_VALUE": 70}
{"CPD_SMILES": "COc1c(N)nc(-c2ccc(C)cc2)nc1C(=O)O", "UNIT_OF_MEASURE": "%", "MEASURED_VALUE": 55}
{"CPD_SMILES": "COc1c(N)nc(-c2ccc(Cl)c(F)c2)nc1C(=O)O", "UNIT_OF_MEASURE": "%", "MEASURED_VALUE": 70}

====

test system: spring wheat (Triticum aestivum L; TRZAS); experiment: Postemergence herbicidal safening in cereal crops, greenhouse, visual injury: spring wheat; assay type: in vivo; details: Triticum aestivum, post-emergence, 480 h; herbicide alone 35 g ae/ha; 20-22 d; read-out: TRZAS Ob (visual injury)
ENDPOINT: pest or weed control at 35 g/ha

{"COMPOUND": "COc1c(N)nc(-c2ccc(C)cc2)nc1C(=O)O [Compound 6]", "ENDPOINT": "pest or weed control at 35 g/ha", "MEASURED_VALUE": "35%"}
{"COMPOUND": "C=Cc1c(N)nc(-c2ccc(Cl)c(OC)c2F)nc1C(=O)OC [Compound 5]", "ENDPOINT": "pest or weed control at 35 g/ha", "MEASURED_VALUE": "25%"}
{"COMPOUND": "COC(=O)c1nc(-c2ccc(Cl)c(OC)c2F)nc(N)c1OC [Compound 4]", "ENDPOINT": "pest or weed control at 35 g/ha", "MEASURED_VALUE": "80%"}
{"COMPOUND": "COc1c(N)nc(-c2ccc(C(F)(F)F)cc2)nc1C(=O)O [Compound 3]", "ENDPOINT": "pest or weed control at 35 g/ha", "MEASURED_VALUE": "75%"}
{"COMPOUND": "C=Cc1c(N)nc(-c2ccc(Cl)c(OC)c2F)nc1C(=O)O [Compound 2]", "ENDPOINT": "pest or weed control at 35 g/ha", "MEASURED_VALUE": "80%"}
{"COMPOUND": "C=Cc1c(N)nc(-c2ccc(Cl)c(N(C)C)c2F)nc1C(=O)O [Compound 7]", "ENDPOINT": "pest or weed control at 35 g/ha", "MEASURED_VALUE": "75%"}
{"COMPOUND": "COc1c(N)nc(-c2ccc(Cl)c(OC)c2F)nc1C(=O)O [Compound 8]", "ENDPOINT": "pest or weed control at 35 g/ha", "MEASURED_VALUE": "83%"}
